biological target: OGA (Homo sapiens); construct: endogenous in cells; host or cells: HEK293 cells inducible for P301L mutant human Tau (2N4R); assay: OGA cellular assay (ICC detection of O-GlcNAcylated proteins in HEK293 cells inducible for P301L mutant human Tau); format: cell-based; settings: HEK293, HEK293 cells inducible for P301L mutant human Tau, maximal effect; Thiamet G 200 uM as maximum
MEASUREMENT_NAME: Emax (%)

If you can, please state the reported Emax value of Cc1cc(C[C@H]2CCCN(C(C)c3ccc4c(n3)OCC(=O)N4)C2)cc(C)n1 (single isomer, unassigned) [Product 61] .
45

Please give the result for Cc1cc(CN[C@H]2CCCN(C(C)c3nc4c(cc3F)OCCO4)C2)cc(C)n1 (stereo partly shown) too.
95

P: COc1cc(C2CCCN(C(C)c3cc4c(cc3F)OCCO4)C2)cc(C(F)(F)F)n1 (stereo not shown)
Q: Cc1cc(C[C@H]2CCCN(C(C)c3ccc4c(n3)OCC(=O)N4)C2)cc(C)n1 (mixture of isomers) [Product 59]
Of P and Q , which one carries the higher reported Emax? State your choice using its label.
P

1: Cc1cc(C[C@H]2CCCN(C(C)c3cnc4c(c3)OCCN4)C2)cc(C)n1 (mixture of isomers) [Product 50]
2: Cc1cc([C@@H]2CCCN([C@H](C)c3ccc4c(n3)OCCO4)C2)cc(C)n1 (single isomer, unassigned)
Please indicate which has the smaller reported Emax: 1 , or 2 . State your choice using its label.
2

* * *

Molecular target: recombinant human Meningioma Expressed Antigen 5 (MGEA5), also referred to as O-GlcNAcase (OGA) (Homo sapiens, UniProt O60502)
Construct: Full length OGA enzyme was purchased at OnGene (cat #TP322411); purchased OnGene (so in the source)
Sequence (O60502 1-916): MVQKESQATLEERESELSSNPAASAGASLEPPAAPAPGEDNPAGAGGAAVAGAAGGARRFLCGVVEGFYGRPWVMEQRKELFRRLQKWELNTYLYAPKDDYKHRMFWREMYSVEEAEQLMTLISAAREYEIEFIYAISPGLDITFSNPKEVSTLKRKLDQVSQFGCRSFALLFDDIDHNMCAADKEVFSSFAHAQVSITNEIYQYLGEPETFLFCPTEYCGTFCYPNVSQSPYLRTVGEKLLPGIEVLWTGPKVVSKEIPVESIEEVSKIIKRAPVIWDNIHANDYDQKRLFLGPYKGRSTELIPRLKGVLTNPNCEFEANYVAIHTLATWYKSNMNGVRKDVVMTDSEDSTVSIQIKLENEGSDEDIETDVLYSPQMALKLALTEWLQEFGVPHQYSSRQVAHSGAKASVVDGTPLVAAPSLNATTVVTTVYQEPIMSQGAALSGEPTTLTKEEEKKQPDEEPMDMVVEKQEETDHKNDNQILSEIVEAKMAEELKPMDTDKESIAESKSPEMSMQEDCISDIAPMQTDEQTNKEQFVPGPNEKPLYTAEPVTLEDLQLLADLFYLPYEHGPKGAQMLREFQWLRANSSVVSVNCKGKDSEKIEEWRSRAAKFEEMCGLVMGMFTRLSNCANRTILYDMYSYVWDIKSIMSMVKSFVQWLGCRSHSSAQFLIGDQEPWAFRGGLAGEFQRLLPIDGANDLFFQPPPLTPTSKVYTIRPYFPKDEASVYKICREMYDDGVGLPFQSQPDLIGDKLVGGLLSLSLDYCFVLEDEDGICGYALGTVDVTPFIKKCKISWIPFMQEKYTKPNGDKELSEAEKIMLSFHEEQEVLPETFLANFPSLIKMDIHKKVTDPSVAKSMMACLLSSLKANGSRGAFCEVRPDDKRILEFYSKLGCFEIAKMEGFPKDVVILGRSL
Assay: OGA biochemical assay (inhibition of FM-GlcNAc hydrolysis, fluorescence)
Conditions: maximal effect, read-out: Enzymatic Emax (%)
MEASUREMENT_NAME: Emax (%)

Examples from the recorded data:
If you can, please state the reported Emax value of Cc1cc(OC2CCCN(C(C)c3cc4c(cc3F)OCCO4)C2)cc(C(F)(F)F)n1 (stereo not shown) .
103

Please give the result for `COc1cc(C[C@H]2CCCN([C@@H](C)c3ccc4c(n3)OCCO4)C2)cc(C)n1` too.
102

1: Cc1cc([C@@H]2CCCN([C@@H](C)c3cc4c(cc3F)OCCO4)C2)cc(C(F)(F)F)n1 (single isomer, unassigned)
2: Cc1cc(C[C@H]2CCCN(C(C)c3cc4c(cc3C)OCCO4)C2)cc(C)n1 (mixture of isomers)
Of 1 and 2 , which one carries the higher reported Emax? State your choice using its label.
1
(1: 87%, 2: 1%)
